# test context: buffer; pH 7.4; 200.0 µM
The following molecules are shown together with reported log10 of solubility kinetic values.
In our notation, the value equals log10 of solubility kinetic in µg/mL.

Here is how some molecules turned out for log10 of solubility kinetic.
>>> reported_result("Cc1ccc(C(=O)NCC(=O)N2CCN(c3cccc(Cl)c3)CC2)s1")
0.45
>>> reported_result("O=C(COC(=O)/C=C/c1cccc(F)c1)NC(=O)NC1CCCC1")
0.69
>>> reported_result("COc1ccccc1N1CCN(C(=O)c2cc(S(=O)(=O)N3CCCCC3)ccc2C)CC1.Cl")
1.83
>>> reported_result("CCCCCCCCn1c(=O)c(C(=O)OC)c(N)c2ccccc21")
-0.05
>>> reported_result("Cc1ccc2c(c1)c1c(n2CC(O)CN2CCC(C)CC2)CCCC1 (configuration not stated)")
1.65
>>> reported_result("O=C(/C=C/c1ccco1)NCCc1ccccc1")
1.52

# evaluate next
Q: Please report the measured log10 of solubility kinetic for `O=C(NCCc1ccccc1)c1coc(=O)c(Br)c1`
Result: 0.99
